biological target: NEK9 (human); experiment: KINOMEscan competition binding; conditions: compound 10.0 µM
We label by threshold. Values of kinase still bound, per cent of control strictly beneath 50% are YES. Values of 50% and up are NO.

Compound Structure | Study System | Discrete Label
CS(=O)(=O)N1CCN(Cc2cc3nc(-c4cccc5[nH]ncc45)nc(N4CCOCC4)c3s2)CC1 | NEK9 (human) | NO
NC(=O)Nc1cc(-c2cccc(F)c2)sc1C(=O)N[C@@H]1CCCNC1 | NEK9 (human) | NO
CCN(CC)CCCCNc1ncc2cc(-c3cc(OC)cc(OC)c3)c(NC(=O)NC(C)(C)C)nc2n1 | NEK9 (human) | NO
COc1ccc(N(C(=O)Oc2c(C)cccc2C)c2ccnc(Nc3ccc(N4CCN(C)CC4)cc3)n2)c(OC)c1 | NEK9 (human) | NO
CN(C)C/C=C/C(=O)Nc1ccc(C(=O)Nc2cccc(Nc3nccc(-c4cccnc4)n3)c2)cc1 | NEK9 (human) | YES
N#CCNC(=O)c1ccc(-c2ccnc(Nc3ccc(N4CCOCC4)cc3)n2)cc1 | NEK9 (human) | YES
COc1cc2ncn(-c3cc(OCc4ccccc4C(F)(F)F)c(C(N)=O)s3)c2cc1OC | NEK9 (human) | YES
COc1cc2ncnc(-n3nc(-c4ccccn4)nc3N)c2cc1OC | NEK9 (human) | YES
COc1cc(N2CCN(C)CC2)ccc1Nc1ncc2c(n1)N(C)c1ccccc1C(=O)N2C | NEK9 (human) | NO
